FYI, the data here is from ChEMBL document CHEMBL4049438.

# Tested on: Staphylococcus aureus
# Assay Explanation: Antibacterial activity against Staphylococcus aureus ATCC 29213 by broth microdilution method
# Assay type: functional
Measured Parameter: MIC (µg/mL)

(a) CCNC(=O)Nc1cc2c(-c3ccncc3)ccc(Oc3cccnc3)c2cn1
(b) CCNC(=O)Nc1cc2c(-c3ccnc(C)c3)ccc(Nc3cccc(C(=O)O)c3)c2cn1
(c) CCNC(=O)Nc1cc2cccc(C)c2cn1
Asked: // ascending sort on MIC for the entries above Answer by writing out the labels in the requested order.
Given back: a, b, c
(a: 0.25 µg/mL, b: 0.5 µg/mL, c: 32 µg/mL)

----------
# Assay Explanation: Inhibition of Escherichia coli N-terminal His6-tagged DNA gyrase subunit GyrA/GyrB ATPase activity expressed in Escherichia coli BL21 (DE3) after 40 mins by spectrophotometric analysis
Measured Parameter: IC50 (µM)

CCNC(=O)Nc1cnc2ccccc2n1    20
CCNC(=O)Nc1nc2ccccc2s1    20
CCNC(=O)Nc1cc2c(-c3cccnc3)cccc2cn1    1
CCNC(=O)Nc1nc2c(s1)CNCC2    200
CCNC(=O)Nc1nc2ccncc2s1    20
CCNC(=O)Nc1cc2ccccc2cn1    20

(P) CCNC(=O)Nc1nc2c(s1)NC(=O)CC2
(Q) CCNC(=O)Nc1nc2c(s1)CCCC2
(R) CCNC(=O)Nc1cc2cccc(C)c2cn1
(S) CCNC(=O)Nc1ccc2ccccc2n1
Asked: Put the molecules in ascending order of IC50. Your answer should be the labels, listed in the requested order.
Given back: R, P, S, Q
(R: 1 µM, P: 20 µM, S: 70 µM, Q: 200 µM)
